# experiment description: Determination of solubility in hydrochloric acid solution of pH 4.0 (saturated solution, HPLC)
# Assay type: physicochemical
# protocol conditions: aqueous buffer, thermodynamic from solid, ultrasonic 1 hour, read-out: Solubilities in hydrochloric acid of pH 4
measurement type: solubility at 1 h (µg/mL)

Worked set:
In: Need solubility at 1 h, item N#CNC(=Nc1ccncc1)NCCCCCCCOc1ccccc1Cl [compound 12]
Out: 3.72

In: Recorded solubility at 1 h for N#CNC(=Nc1ccncc1)NCCCCCOc1ccccc1Cl [compound 11] , please?
Out: 2.85

In: Field request: solubility at 1 h | item: CC(C)(C)OC(=O)NCCCCCCCCCCCCNC(=Nc1ccncc1)NC#N [compound 5]
Out: 0.92

I. N#CNC(=Nc1ccncc1)NCCCCCOc1ccc(Cl)cc1 [compound 13]
II. N#CNC(=Nc1ccncc1)NCCCCCCOc1ccccc1Br [compound 8]
In: # argmax over solubility at 1 h for candidates I and II Answer by stating the label of the chosen item.
Out: II
